System: LOX IMVI melanoma
Experiment: NCI-60 one-dose screen, 48 h
Details: 10 µM unless noted
About 83,000 compounds went through this panel and 20% of them were active in at least one assay; those are over-represented in the sample as a whole. Activity calls are given as the source filed them. How the source made its calls: active means growth percent below 10; inactive means the rest.
Respond only with the outcome that fits, drawn from 1 (active), -1 (inactive)

**Query** # outcome recorded in this test, key = COc1ccccc1/C=C/C(=O)/C=C/c1ccccc1O
**Result** 1

**Query** # outcome recorded in this test, key = Cc1ccc(S(=O)(=O)c2ccc3[nH]c(=O)[nH]c(=O)c3c2)cc1
**Result** -1

**Query** # outcome recorded in this test, key = CCOC(=O)C(CC(c1ccccc1)N1CCCCC1)[N+](=O)[O-] (stereo unspecified)
**Result** -1

**Query** # outcome recorded in this test, key = COc1ccc(-n2ncc3c2ccc2cc(S(=O)(=O)c4ccccc4)c(=O)n(C)c23)cc1
**Result** -1

**Query** # outcome recorded in this test, key = COc1cc(Cn2cc(F)c(=O)[nH]c2=O)cc(OC)c1
**Result** -1

**Query** # outcome recorded in this test, key = COc1ccc(C2OCC(C)(C)CO2)cc1OC
**Result** -1

**Query** # outcome recorded in this test, key = Cc1ccc(N(CSc2ccc(Cl)cc2)CSc2ccc(Cl)cc2)cc1
**Result** 1

**Query** # outcome recorded in this test, key = CCCN1CCN(c2ccc3nc(-c4ccc5nc(-c6ccc(C(F)(F)F)cc6)[nH]c5c4)[nH]c3c2)CC1
**Result** 1

**Query** # outcome recorded in this test, key = O=S(=O)(Nc1ccc(Cl)c(Cl)c1)c1ccc(-c2cnc(C3CC3)o2)cc1
**Result** -1

**Query** # outcome recorded in this test, key = COc1ccc(Cn2c(Br)c3c(c2-c2cc(OC)c(OC)c(OC)c2)CCc2sc(N)nc2-3)cc1
**Result** -1

**Query** # outcome recorded in this test, key = CSc1ccc(OC(C)=O)cc1C
**Result** -1

----------
System: HCT-116 colon
Test: NCI-60 one-dose screen, 48 h (100 = growth as untreated, 0 = no growth, -100 = all killed)
Settings: 10 µM unless noted
This is part of a sample that, as a whole, favours compounds with a hit. Of some 83,000 tested, about 20% had one in any assay.
Field: label. Allowed values: Met (growth < 20%) or Not met (growth >= 20%).

**Query** # strict comparison: is reported growth < 20%? input = CN1CCN(c2ccc3nc(-c4ccc5nc(-c6ccc(C(F)(F)F)cc6)[nH]c5c4)[nH]c3c2)CC1
**Result** Not met

**Query** # strict comparison: is reported growth < 20%? input = COc1cccc(C2C3=C(COC3=O)N(CCO)c3cc4c(cc32)OCO4)c1 (stereo not given)
**Result** Met

**Query** # strict comparison: is reported growth < 20%? input = O=C(Nc1ccc(Cl)c(Cl)c1)OCn1ncc2ccc([N+](=O)[O-])cc21
**Result** Not met

**Query** # strict comparison: is reported growth < 20%? input = COc1ccc(-c2c3c(N)c4c(nc3nc3c2c(C)nn3-c2ccccc2)CCCCC4)cc1
**Result** Not met

**Query** # strict comparison: is reported growth < 20%? input = Clc1ccc(Nc2ccnc(N3CCN(c4ccnc5cc(Cl)ccc45)CC3)n2)cc1
**Result** Met

----------
System: SK-MEL-2 melanoma
Experiment: NCI-60 one-dose screen, 48 h
Conditions: 10 µM unless noted
The panel holds about 83,000 compounds, 20% with a hit somewhere; the sample as a whole holds those more often. The source made the active and inactive calls. The calls were made as follows: active = growth percent below 10; inactive = the rest.
Respond only with the outcome that fits, drawn from active, inactive

**Query** # outcome recorded in this test, key = CN1CCC(OC2c3ccccc3CCc3ccccc32)CC1
**Result** inactive

**Query** # outcome recorded in this test, key = NS(=O)(=O)c1cc(Br)c2c(c1)S(=O)(=O)NCN2
**Result** inactive

**Query** # outcome recorded in this test, key = c1ccc(-c2n(Cc3ccc4ccccc4c3)c3ccccc3[n+]2Cc2ccc3ccccc3c2)cc1
**Result** active

**Query** # outcome recorded in this test, key = CC1CCCCN1S(=O)(=O)c1ccc(CN=C=S)cc1 (stereo unspecified)
**Result** inactive

**Query** # outcome recorded in this test, key = O=[N+]([O-])c1cc2c(cc1Br)C1C(C3C2C(Cl)(Cl)C(Cl)=C(Cl)C3(Cl)Cl)C(Cl)(Cl)C(Cl)=C(Cl)C1(Cl)Cl (stereo unspecified)
**Result** inactive

**Query** # outcome recorded in this test, key = COc1ccc(/C=C2\CN(Cc3cn(CCCNc4ccnc5cc(Cl)ccc45)nn3)C/C(=C\c3ccc(OC)cc3)C2=O)cc1
**Result** inactive

**Query** # outcome recorded in this test, key = Cn1cc(C(=O)NCCC(=N)N)cc1NC(=O)CN=C(N)N
**Result** inactive

**Query** # outcome recorded in this test, key = Clc1ccccc1Nc1ccc2nnc(-c3ccncc3)n2n1
**Result** inactive

**Query** # outcome recorded in this test, key = COc1ccc(-c2c3c(N)c4c(nc3nc3c2c(C)nn3-c2ccccc2)CCCCC4)cc1
**Result** inactive

**Query** # outcome recorded in this test, key = O=C(c1cnn2c1NC(c1ccc(F)cc1)C2)N1CCCCC1 (stereo unspecified)
**Result** inactive

**Query** # outcome recorded in this test, key = COc1ccc(/C=N/OCC(O)CNCc2ccccc2)cc1OC1CCCC1 (stereo unspecified)
**Result** inactive

**Query** # outcome recorded in this test, key = COc1cc2cc(Oc3ccc(NC(=O)Nc4cccc(C(F)(F)F)c4)cc3)c(C)nc2cc1OCCN1CCCCC1
**Result** active

**Query** # outcome recorded in this test, key = COC(=O)C1C2CC3c4[nH]c5cc(OC)ccc5c4CCN3CC2CC(OC2CCCCO2)C1OC (stereo unspecified)
**Result** inactive

**Query** # outcome recorded in this test, key = COc1ccc(-c2cc(=O)oc3c4c(ccc23)OCN(Cc2ccc(F)cc2)C4)cc1
**Result** inactive

**Query** # outcome recorded in this test, key = COC(=O)c1cc(-c2ccc(C)cc2)n(C(=O)CSc2nc3sc(C(N)=O)c(C)c3c(=O)n2Cc2ccccc2)n1
**Result** inactive

**Query** # outcome recorded in this test, key = COc1cc(NC(=O)COc2ccccc2)c(C(N)=O)cc1OC
**Result** active

**Query** # outcome recorded in this test, key = COc1ccc(-c2c3c(N)c4c(nc3nc3c2c(C)nn3-c2ccccc2)CCCC4)cc1
**Result** inactive

**Query** # outcome recorded in this test, key = Cc1nc2cc(Nc3nc(NCCO)nc(Nc4ccc(F)cc4)n3)ccc2n1Cc1ccccc1
**Result** inactive

**Query** # outcome recorded in this test, key = Cc1c(C(=O)Nc2nc(-c3ccccc3)cs2)nnn1-c1ccccc1Br
**Result** inactive

**Query** # outcome recorded in this test, key = Cc1nc2cc(Nc3nc(Nc4ccc(F)cc4)nc(N4CCN(C)CC4)n3)ccc2n1Cc1ccccc1
**Result** active

**Query** # outcome recorded in this test, key = COc1cccc(OC(=O)c2ccccc2)c1OC(=O)c1ccccc1
**Result** inactive

----------
Tested on: COLO 205 colon
Assay: NCI-60 one-dose screen, 48 h (100 = growth as untreated, 0 = no growth, -100 = all killed)
Conditions: 10 µM unless noted
About 83,000 compounds went through this panel and 20% of them were active in at least one assay; those are over-represented in the sample as a whole.
measure.name: growth (%)
Just the number please, in %, no unit attached.

**Query** Find the measured growth: item Fc1ccccc1Nc1ccc2nnc(-c3ccncc3)n2n1 , target or system COLO 205 colon.
**Result** 106

**Query** Find the measured growth: item COc1ccccc1CNCCCCCCCCCCCCN1C(=O)c2ccc3c4c(ccc(c24)C1=O)C(=O)N(CCCCCCCCCCCCNCc1ccccc1OC)C3=O , target or system COLO 205 colon.
**Result** 109

**Query** Find the measured growth: item CCCCC(=O)N/N=C/c1cc(I)cc(I)c1O , target or system COLO 205 colon.
**Result** 57

**Query** Find the measured growth: item Cc1cc(Cl)c2c(Cl)ccc(Cl)c2n1 , target or system COLO 205 colon.
**Result** 114

**Query** Find the measured growth: item C[C@H]1C(=O)C23CCC1C[C@@]21O[C@@H]2C(C)(C)C=CC(=O)C23COC1=O , target or system COLO 205 colon.
**Result** 105

**Query** Find the measured growth: item NC(=O)c1cc(I)ccc1NC(=O)COc1ccccc1 , target or system COLO 205 colon.
**Result** 12.2

**Query** Find the measured growth: item CCN(CC)c1ccc(/C=C(\C#N)c2cc3ccccc3[nH]2)cc1 , target or system COLO 205 colon.
**Result** 45.3

**Query** Find the measured growth: item N#CCCN1CCN(CCC#N)C1=S , target or system COLO 205 colon.
**Result** 105

**Query** Find the measured growth: item C=CC[P+](c1ccccc1)(c1ccccc1)c1ccccc1 , target or system COLO 205 colon.
**Result** 32.8

**Query** Find the measured growth: item COc1cc(C(=O)N(C(C)C)C2CCCCC2)cc(OC)c1OC , target or system COLO 205 colon.
**Result** 105

**Query** Find the measured growth: item c1ccc(-c2nc(N3CCOCC3)c3c4c(sc3n2)CCCCCC4)nc1 , target or system COLO 205 colon.
**Result** 68.5
